- protocolDescription: Acute toxicity
- experimentalContext: mouse, in vivo; mice, oral, mortality at the 72nd hour; read-out: Acute toxicity LD50 (Test (3))
Counter-ions that a name gives are not always drawn.
propertyName: LD50 at 72 h (mg/kg)
I only need the number, in mg/kg, no unit after it.

>>> df
                                   compound  propertyname  valuereported
0  C=CCn1c2c(c3ccccc31)SCCC2CNC (centres unmarked) [Compound 5]  LD50 at 72 h            700
1  CCN(CC)CCN(C)CC1CCSc2c1n(C)c1ccccc21 (centres unmarked) [Compound 6]  LD50 at 72 h            700
2  CNCC1CCSc2[nH]c3ccccc3c21 (centres unmarked) [Ref., HCl salt, reference compound]  LD50 at 72 h            330
3  Cc1c(N(C)C)c(=O)n(-c2ccccc2)n1C [Aminopyrine, reference compound]  LD50 at 72 h            800
4  CN(C)CC1CCSc2c1n(C)c1ccccc21 (centres unmarked) [Compound 3]  LD50 at 72 h            400

compound CCn1c2c(c3ccccc31)SCCC2CNC (centres unmarked) [Compound 2] , LD50 at 72 h observed: 800

// field: LD50 at 72 h; key: CNCC1CCSc2c1n(C)c1ccccc21 (centres unmarked) [Compound 1] ; value = 400

---

- Tested on: Carrageenin edema
- protocolDescription: Anti-inflammatory activity (Carrageenin edema method)
- Assay type: in vivo, JCl-Wistar female rats
- experimentalContext: Rattus norvegicus; rats, oral, 30 min before carrageenin; swelling measured 3 hours later; read-out: Anti-inflammatory activity ED30 (Test (1))
propertyName: ED30 (mg/kg)
I only need the number, in mg/kg, no unit after it.

Recorded results for 5 molecules are shown here.
                                   molecule  propertyname  valuereported
0  C=CCn1c2c(c3ccccc31)SCCC2CNC (stereo not drawn)          ED30           17.5
1  CCN(CC)CCN(C)CC1CCSc2c1n(C)c1ccccc21 (stereo not drawn)          ED30           13.4
2  CCn1c2c(c3ccccc31)SCCC2CNC (stereo not drawn)          ED30            9.4
3  CNCC1CCSc2c1n(C)c1ccccc21 (stereo not drawn)          ED30            9.4
4  CN(C)CC1CCSc2c1n(C)c1ccccc21 (stereo not drawn)          ED30           28.3

// molecule Cc1c(N(C)C)c(=O)n(-c2ccccc2)n1C [Aminopyrine, reference compound] , assay Carrageenin edema, ED30 value: 24
